The entries below are paired with their reported A431 EC50 with PBMC (pM).
- target_of_assay: NKp30 on human NK cells (human) (UniProt O14931)
- Sequence (O14931 19-201): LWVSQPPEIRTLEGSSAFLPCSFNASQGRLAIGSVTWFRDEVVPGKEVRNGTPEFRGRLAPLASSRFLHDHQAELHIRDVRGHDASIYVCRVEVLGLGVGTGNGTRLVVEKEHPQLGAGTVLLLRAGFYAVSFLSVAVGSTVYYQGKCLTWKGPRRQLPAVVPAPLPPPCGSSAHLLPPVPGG
- protocol_notes: cell-based or functional assay
readout: A431 EC50 with PBMC (pM)

| binder | readout | endpoint_value |
| --- | --- | --- |
| ΔB7-H6_S3#15-SEED-PGLALA (bispecific antibody, part only; not given: SEED Fc chains and hu225 Fab, part only) chain, part: DLKVEMMAGGTQITPLNDNVTIFCNIFYSQPLNITIMGITWFWKSLTFDKEVKVFEFWGDHQEAFRPGAIVSPWRLKSGDASLRLPGIQLEEAGEYRCEVVVTPYKAQGTVQLEVVASPAS | A431 EC50 with PBMC (pM) | 29.9 |
| ΔB7-H6_S3#25-SEED-PGLALA (bispecific antibody, part only; not given: SEED Fc chains and hu225 Fab, part only) chain, part: DLKVEMMAGGTQITPLNDNVTIFCNIFYSQPLNITWMGITWFWKSLTFDKEVKVFEFYGDHQEAFRPGAIVSPWRLKSGDASLRLPGIQLEEAGEYRCEVVVTPYKAQGTVQLEVVASPAS | A431 EC50 with PBMC (pM) | 37.8 |
| ΔB7-H6_S3#18-SEED-PGLALA (bispecific antibody, part only; not given: SEED Fc chains and hu225 Fab, part only) chain, part: DLKVEMMAGGTQITPLNDNVTIFCNIFYSQPLNITYMGITWFWKSLTFDKEVKVFEFWGDHQEAFRPGAIVSPWRLKSGDASLRLPGIQLEEAGEYRCEVVVTPYKAQGTVQLEVVASPAS | A431 EC50 with PBMC (pM) | 51.1 |
| ΔB7-H6_S3#27-SEED-PGLALA (bispecific antibody, part only; not given: SEED Fc chains and hu225 EGFR Fab, part only) chain, part: DLKVEMMAGGTQITPLNDNVTIFCNIFYSQPLNITTMGITWFWKSLTFDKEVKVFEFWGDHQEAFRPGAIVSPWRLKSGDASLRLPGIQLEEAGEYRCEVIVTPYKAQGTVQLEVVASPAS | A431 EC50 with PBMC (pM) | 60.2 |
